Parameter cGMP response relative to 1 uM CNP22 (%) at 0.01 µM: see the listing below.
- system.under.test: NPR-B (Mus musculus)
- Construct: Murine NIH3T3 cells express endogenously the CNP signaling receptor, NPR-B; endogenous in cells; host or cells: NIH3T3 (murine fibroblasts)
- Sequence (Q6VVW5 17-1047): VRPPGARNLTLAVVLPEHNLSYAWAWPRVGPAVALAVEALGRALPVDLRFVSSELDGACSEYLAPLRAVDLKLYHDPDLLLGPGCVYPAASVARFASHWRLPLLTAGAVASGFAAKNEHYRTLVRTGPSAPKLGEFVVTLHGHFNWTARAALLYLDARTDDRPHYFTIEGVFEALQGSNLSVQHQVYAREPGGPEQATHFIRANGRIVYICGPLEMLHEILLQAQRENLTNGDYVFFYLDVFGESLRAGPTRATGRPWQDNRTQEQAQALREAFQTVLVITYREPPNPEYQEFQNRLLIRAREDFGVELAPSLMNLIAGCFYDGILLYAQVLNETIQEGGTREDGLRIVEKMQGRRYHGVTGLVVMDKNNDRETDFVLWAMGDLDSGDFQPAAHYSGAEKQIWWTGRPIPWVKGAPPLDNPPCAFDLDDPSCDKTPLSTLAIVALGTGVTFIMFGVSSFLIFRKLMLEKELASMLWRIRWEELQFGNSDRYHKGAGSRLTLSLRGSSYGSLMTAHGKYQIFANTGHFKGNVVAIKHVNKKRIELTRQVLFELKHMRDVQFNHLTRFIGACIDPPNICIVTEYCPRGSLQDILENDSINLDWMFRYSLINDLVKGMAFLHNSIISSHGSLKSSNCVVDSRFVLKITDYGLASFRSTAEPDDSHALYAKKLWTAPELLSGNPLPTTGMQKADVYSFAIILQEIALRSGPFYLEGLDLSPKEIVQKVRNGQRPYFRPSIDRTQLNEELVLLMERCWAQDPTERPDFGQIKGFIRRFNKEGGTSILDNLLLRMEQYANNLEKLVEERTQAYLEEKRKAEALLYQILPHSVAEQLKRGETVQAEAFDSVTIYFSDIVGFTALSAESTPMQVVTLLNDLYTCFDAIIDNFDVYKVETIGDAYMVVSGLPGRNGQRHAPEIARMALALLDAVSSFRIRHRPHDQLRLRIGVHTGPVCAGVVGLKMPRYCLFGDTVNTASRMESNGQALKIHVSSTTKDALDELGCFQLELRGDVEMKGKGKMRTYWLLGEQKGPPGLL
- experimental.details: Stimulation of cGMP production in NIH3T3 cells
- Type: cell-based, Murine
- protocol.conditions: NIH3T3, […], read-out: cGMP Response rel. to 1 uM CNP22, 10 nM
Field format: number, assumed %, no unit text.

Quick check: cGMP response relative to 1 uM CNP22 (%) at 0.01 µM of CC[C@H](C)[C@@H]1NC(=O)[C@H](CCCNC(=N)N)NC(=O)[C@H](CC(=O)O)NC(=O)[C@H](CC(C)C)NC(=O)[C@H](CCCCN)NC(=O)[C@H](CC(C)C)N(C)C(=O)CNC(=O)[C@H](Cc2ccccc2)NC(=O)[C@@H](NC(=O)CNC(=O)[C@H](CCCCN)NC(=O)[C@H](CO)NC(=O)[C@H](CC(C)C)NC(=O)CN)CSSC[C@@H](C(=O)O)NC(=O)CNC(=O)[C@H](CC(C)C)N(C)C(=O)CNC(=O)[C@H](CO)NC(=O)[C@H](CCSC)NC(=O)[C@H](CO)NC(=O)CNC1=O ?
1

More entries:
Quick check: cGMP response relative to 1 uM CNP22 (%) at 0.01 µM of CC[C@H](C)[C@@H]1NC(=O)[C@H](CCCNC(=N)N)NC(=O)[C@H](CC(=O)O)NC(=O)[C@H](CC(C)C)N(C)C(=O)[C@H](CCCCN)NC(=O)[C@H](CC(C)C)N(C)C(=O)CNC(=O)[C@H](Cc2ccccc2)NC(=O)[C@@H](NC(=O)CNC(=O)[C@H](CCCCN)NC(=O)[C@H](CO)NC(=O)[C@H](CC(C)C)NC(=O)CN)CSSC[C@@H](C(=O)O)NC(=O)CNC(=O)[C@H](CC(C)C)N(C)C(=O)CNC(=O)[C@H](CO)NC(=O)[C@H](CCSC)NC(=O)[C@H](CO)NC(=O)CNC1=O ?
18

Values compiled from patent US8377884B2.
